test system: NCI/ADR-RES ovarian; assay: NCI tumour cell line growth inhibition, 48 h
measurement-label: TGI

Enquiry: Print NCI/ADR-RES ovarian TGI for CCc1c(C)c2cc(-n3c(-c4ccc(OC)cc4)csc3=N)c(O)c(C)c2oc1=O .
Return: 10.6 µM

Enquiry: Using NCI/ADR-RES ovarian as the test system, report measured TGI of CSc1ccc(C(=O)/C=C/c2ccc(Cl)cc2Cl)cc1 .
Return: 94.7 µM

Enquiry: Report value: TGI, system: NCI/ADR-RES ovarian, molecule: COc1ccc(N2C(=O)/C(=C/c3ccc(N(CCC#N)CCC#N)cc3)N=C2c2ccccc2)cc1
Return: > 100 µM

Enquiry: Recall the reported TGI of COc1ccc2c(c1)-c1c(c3cc(OC)ccc3n(CCN(C)C)c1=O)C2=O when tested on NCI/ADR-RES ovarian.
Return: 7.41 µM

Enquiry: Tell me its TGI on NCI/ADR-RES ovarian: CN1CCN(c2ccc(NC3=CC(=O)c4ncncc4C3=O)cc2)CC1
Return: 1.01 µM

* * *

Field: TGI. Provide a value for each of the molecules that follow.
system: DMS 273 small cell lung; assay: NCI tumour cell line growth inhibition, 48 h

Enquiry: Provide measured TGI value, entry: CC(=O)Nc1ccc(/C=c2\sc3nnc(-c4cccnc4)n3c2=O)cc1
Return: 68.5 µM

Enquiry: Consider the molecule COC(=O)[C@@]12C3=NO[C@]1(C(=O)OC)C(O[Si](C)(C)C(C)(C)C)[C@@H](OC(C)=O)[C@@H](OC(C)=O)[C@@H]2[C@@H](OCc1ccccc1)CC3 (stereo not given in full) . State its measured TGI.
Return: > 100 µM

Enquiry: Kindly indicate its recorded TGI. Item: CC(=O)OCC1OC(n2c(=S)n(-c3ccccc3)c(=O)c3cc(Br)ccc32)C(OC(C)=O)C1OC(C)=O (stereo not given)
Return: > 100 µM

Enquiry: Kindly indicate its recorded TGI. Item: COc1ccc(-c2oc3cc(O)c(OC)c(O)c3c(=O)c2O)cc1
Return: 30 µM

Enquiry: Answer with the recorded TGI for the molecule listed here: Cc1ccc(S(=O)(=O)C2CC2(Cl)Cl)cc1 (stereo not given)
Return: > 100 µM

Enquiry: Read the entry Cc1ccc(S(=O)(=O)NNS(C)(=O)=O)cc1 and write its reported TGI.
Return: > 100 µM

Enquiry: Please list TGI recorded for the molecule O=C1Nc2ccc(Cl)c(I)c2C1=O
Return: 30.8 µM

Enquiry: Return TGI for the following molecule: CCN(CC)c1ccc(C2N3CCCCC3[C@@H]3c4[nH]c5ccccc5c4CCN23)cc1 (stereo not given in full)
Return: > 100 µM

Enquiry: Answer with reported TGI of CC12CCc3ccccc3C1=NNC(=O)C2 (stereo not given)
Return: > 100 µM

Enquiry: Find the measured TGI of NC(=O)/N=C/c1c(O)c2ccccc2oc1=O and report it.
Return: > 100 µM

* * *

What TGI was measured for each of the following?
test system: HCT-15 colon; assay: NCI tumour cell line growth inhibition, 48 h
All answers are understood in µM, so give the number only.

Enquiry: Return value of TGI for input CC(=O)Nc1ccc(/C=c2\sc3nnc(-c4cccnc4)n3c2=O)cc1 , no commentary.
Return: 35.9

Enquiry: Look up TGI of C=C(C)C(=O)Nc1ccc(-c2c(-c3ccc(Oc4nccc(C)n4)c(F)c3)c3c(N)ncnc3n2C)cc1 and report it.
Return: 13.5

* * *

system: DU-145 prostate; assay: NCI tumour cell line growth inhibition, 48 h; in the data active = GI50 below about 0.43 µM; inactive = the rest
Write down one outcome, taken from active, inactive

Enquiry: What did this assay record as the result for COc1ccc2c(c1)C(=O)c1c-2n(CCCN(C)C)c(=O)c2cc([N+](=O)[O-])ccc12 ?
Return: active

Enquiry: Given CCN1C(=O)N(CC)C2C1N=C(SC)N2/N=C/C=C/c1ccccc1OC (stereo not given) , state the outcome it received in this test.
Return: inactive

Enquiry: Record request — test call for COC(=O)c1cc(-c2ccc(S(C)(=O)=O)cc2)[nH]c1N/N=C/c1c(Cl)cccc1Cl
Return: inactive

Enquiry: Field: outcome | Entry: CN1CCN(c2ccc(NC3=CC(=O)c4ncncc4C3=O)cc2)CC1
Return: inactive

Enquiry: In this assay, the call recorded for S=C(SSC(=S)N1CCCCC1)N1CCCCC1 was what?
Return: inactive

* * *

system: SK-MEL-2 melanoma; test: NCI tumour cell line growth inhibition, 48 h
measurement-label: TGI

Enquiry: Return TGI for the following compound: O=C1c2cccnc2-c2nccc3c2c1nc1ccccc13
Return: 0.525 µM

Enquiry: Answer with the recorded TGI of C=CCOC(=O)Cn1ccc(=O)[nH]c1=O only.
Return: > 100 µM

Enquiry: Provide TGI value for the following compound: O=S(O)c1cc(Cl)c(O)c(Cl)c1
Return: > 100 µM

Enquiry: Please indicate TGI recorded for O=C1Nc2ccc(Cl)c(I)c2C1=O
Return: 34.2 µM

Enquiry: State, in one line, measured TGI of COc1ccc(-c2oc3cc(O)c(OC)c(O)c3c(=O)c2O)cc1
Return: > 100 µM

Enquiry: Specify reported TGI for the compound shown: COc1ccc(N2C(=O)/C(=C/c3ccc(N(CCC#N)CCC#N)cc3)N=C2c2ccccc2)cc1
Return: > 100 µM

Enquiry: Tell us which TGI value is on record for COC(=O)CC1=C(C)/C(=C/c2[nH]c(-c3ccc[nH]3)cc2OC)N=C1C
Return: 0.354 µM

Enquiry: Name the recorded TGI of the item CCCCCCCCCCCCCS(=O)(=O)NCC(N)=O in your answer.
Return: > 100 µM

Enquiry: Supply TGI value. Item: COc1ccc2c(c1)/c(=C/C#N)c1c3ccccc3[n+](C)n21
Return: 36.1 µM

Enquiry: Identify TGI associated with the compound COc1cccc(OC)c1NC(=O)C(=O)Nn1c(NNC(=O)c2ccncc2)nc2ccccc2c1=O
Return: > 100 µM

Enquiry: Entry NC(=O)c1ncn(C2OC(CO)C(O)C2O)c1O (stereo unspecified) needs its TGI filled in; supply it.
Return: > 100 µM

Enquiry: Please indicate TGI recorded for COc1ccc(C(=O)C(C(=O)C(=O)NCCCNC(=O)C(=O)C(C(=O)c2ccc(OC)cc2)c2ccc(OC)cc2)c2ccc(OC)cc2)cc1 (stereo unspecified)
Return: > 100 µM

Enquiry: Report TGI, nothing else, for this compound: CSc1ncc2c(n1)-c1ccccc1OC2
Return: > 100 µM

Enquiry: Look up and report measured TGI for this entry: CC(=O)C1C(=O)C(=O)N(CCN2C(=O)C(=O)C(C(C)=O)C2=O)C1=O (stereo unspecified)
Return: > 100 µM

Enquiry: Let me know recorded TGI for CCOS(=O)(=O)c1ccc(-c2c3nc(c(-c4ccc(S(=O)(=O)OCC)cc4)c4ccc([nH]4)c(-c4ccc(S(=O)(=O)OCC)cc4)c4nc(c(-c5ccc(S(=O)(=O)OCC)cc5)c5ccc2[nH]5)C=C4)C=C3)cc1 , thanks.
Return: > 31.6 µM

Enquiry: Supply TGI value. Item: CCCCCCCCCCCC[N+]12CC[N+](C)(CC1)CC2
Return: > 100 µM

Enquiry: Let me know recorded TGI for COc1cccc(CCNc2c(C#N)c3n(c4ccccc4[n+]3C)c3ncccc23)c1 , thanks.
Return: 43.3 µM

Enquiry: Specify reported TGI for the compound shown: NC1=Nc2ccccc2Sc2cccc(F)c21
Return: > 100 µM

Enquiry: Provide one value: measured TGI of C=C(C)C(=O)Nc1ccc(-c2c(-c3ccc(Oc4nccc(C)n4)c(F)c3)c3c(N)ncnc3n2C)cc1
Return: 9.74 µM

Enquiry: Dear colleague, please send me the reported TGI for COC(=O)c1c(O)ccc2c1c1c(n2Cc2cccc(C)c2)C(=O)c2ccccc2C1 when you can.
Return: > 75 µM

Enquiry: Specify measured TGI for COc1cc(-c2ccc[nH]2)[nH]c1/C=C1\N=C(C)C(CC(=O)OCC(C)(C)C)=C1C .
Return: 0.415 µM

* * *

system: OVCAR-8 ovarian; test: NCI tumour cell line growth inhibition, 48 h; in the data active means GI50 below about 0.43 µM; inactive means the rest
Respond with a class label; see yes (1) (active), no (0) (inactive)

Enquiry: What is the recorded call for this compound in the test? COc1ccc2c(c1)/C(=N/OC(C)=O)c1c-2c(OC)nc2ccccc12
Return: no (0)

Enquiry: Hi team, can someone confirm the assay call for COc1ccc(-c2c(-c3ccc(C#N)c(F)c3)nc(N3CCC(N)CC3)n(C)c2=O)cc1F ?
Return: no (0)

Enquiry: Which result was noted for this compound in the test: CCOC(=O)/C=C1/SC(=Nc2ccc(C#N)cc2)N(Cc2ccco2)C1=O
Return: no (0)

Enquiry: Give the logged outcome of this assay for the following compound: COc1ccc2c(c1)-c1c(c3cc(OC)ccc3n(CCN(C)C)c1=O)C2=O
Return: yes (1)

Enquiry: Field: outcome | Entry: CCS(=O)(=O)c1ccc(OC)c(Nc2ncc(-c3cccc(F)c3)o2)c1
Return: no (0)

Enquiry: Please state the recorded outcome for this compound: CC(C)(C)[Si](C)(C)OC1[C@@H](COC(=O)NC(=O)CCl)O[C@@H](n2cnc3c(N)ncnc32)[C@H]1O[Si](C)(C)C(C)(C)C (some centres not stated)
Return: no (0)

Enquiry: Fill in: this test's call for COc1cc(C2NC(=O)C(C#N)=C(Nc3cccc(C)c3)S2)ccc1O (configuration not stated) is ___
Return: no (0)

Where do the numbers come from? From PubChem BioAssay (NCI).
